# PROCEDURE_SUMMARY: Acute toxicity in mice after oral administration
# MEASUREMENT_CONTEXT: mouse, in vivo, read-out: LD50
PROPERTY_LABEL: LD50

Input: Form field: reported LD50 of C=C1C[C@@]23CC[C@H]4[C@@](C)(CCC[C@@]4(C)C(=O)O[C@@H]4O[C@H](CO)[C@@H](O)[C@H](O)[C@H]4O)[C@@H]2CC[C@]1(O[C@@H]1O[C@H](CO)[C@@H](O)[C@H](O)[C@H]1O[C@@H]1O[C@H](CO)[C@@H](O)[C@H](O)[C@H]1O)C3 [STEVIOSIDE]
Output: > 15000 mg/kg
